Target: UniProt P25095
Sequence (P25095 1-359): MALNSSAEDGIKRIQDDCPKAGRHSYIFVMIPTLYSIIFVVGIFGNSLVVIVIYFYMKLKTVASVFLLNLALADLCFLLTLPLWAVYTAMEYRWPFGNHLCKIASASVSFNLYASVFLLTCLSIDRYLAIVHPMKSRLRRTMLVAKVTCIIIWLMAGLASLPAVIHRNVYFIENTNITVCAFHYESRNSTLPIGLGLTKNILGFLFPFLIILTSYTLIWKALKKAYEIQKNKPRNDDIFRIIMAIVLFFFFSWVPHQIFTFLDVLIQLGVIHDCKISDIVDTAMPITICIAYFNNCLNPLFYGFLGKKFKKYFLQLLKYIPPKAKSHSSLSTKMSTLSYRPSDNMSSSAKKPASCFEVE
property-name: IC50 (nM)

a. CCCCc1nc(SC)c(C(=O)O)n1Cc1ccc(-c2ccccc2-c2nnn[nH]2)cc1
b. CCCCc1nc(S(C)(=O)=O)c(C(=O)O)n1Cc1ccc(-c2ccccc2-c2nn[nH]n2)cc1
Select the item whose IC50 value is smaller, choosing between a and b . Please respond with the label that marks your chosen entry.
b
(b: 0.8 nM, a: 1.9 nM)

a. CCCCc1nc(Sc2ccccc2)c(C(=O)O)n1Cc1ccc(-c2ccccc2-c2nn[nH]n2)cc1
b. CCCCc1nc(SCc2ccc(OC)cc2)c(C(=O)O)n1Cc1ccc(-c2ccccc2C(=O)O)cc1
Compare the recorded IC50 of a and b ; state which is larger. Please respond with the label that marks your chosen entry.
b

Where do the numbers come from? From patent US5684028A.
